Test: NCI Yeast Anticancer Drug Screen. Data for the bub3 strain (AID 167)
Details: S. cerevisiae bub3 mutant strain, at 50.0 µM (retest, dose inferred, filed as 5.0)
Description: Growth inhibition of yeast strains with defined genetic alterations is measured as a screen for potential anti-cancer activity. Selected strains with alterations in DNA damage repair or cell cycle control were exposed to compounds and growth inhibition was measured relative to vehicle treated controls. The strain used in this assay is bub3
The panel holds about 79,000 compounds, 15% with a hit somewhere; the sample as a whole holds those more often. Calls of active or inactive are those of the source. Rule as the data show it: active = growth inhibition above about 70%; inactive = the rest.
Form entry, call: pick from 1 for active, -1 for inactive

Observe how each entry below is paired with its result.
COc1ccc2c(ccc3oc([N+](=O)[O-])cc32)c1 = 1
C=C1C(=O)O[C@@H]2C[C@@H](C)[C@@H]3C=CC(=O)[C@@]3(C)[C@@H](O)[C@H]12 = -1
Clc1ccc(Cl)c(Cl)c1 = 1
CC(=O)[O][Sn]([c]1ccccc1)([c]1ccccc1)[c]1ccccc1 = 1
CC/C(=C\c1ccc(Cl)c(Cl)c1)[N+](=O)[O-] = 1
O=C([CH-]C(=O)c1ccccc1)c1ccccc1.O=C([CH-]C(=O)c1ccccc1)c1ccccc1.[Nd+3].[OH-].[OH3+] = -1
O=C1C(Cl)=C(Cl)C(=O)c2ccccc21 = 1
CC(C)c1oc(=O)cc2c1C(O)C1OC(=O)C3(C)C(O)C4OC4C2(C)C13 (stereo unspecified) = 1
CC[PH+](CC)CC[S-].CC[PH+](CC)CC[S-].[Au+].[Au+] = -1
[C-]#[O+].[C-]#[O+].[Mo].[N-]=Nc1ccc([N+](=O)[O-])cc1.[c-]1[c-][c-][cH-][c-]1 = 1

Would you kindly look at the next entry?
I would be grateful if you could indicate the recorded call for "CN(C)[PH+](N(C)C)N(C)C.CN(C)[PH+](N(C)C)N(C)C.[C-]#[O+].[C-]#[O+].[C-]#[O+].[C-]#[O+].[C-]#[O+].[C-]#[O+].[Co].[Co].[Hg]" .
-1
